target: Nucleotide-binding oligomerization domain-containing protein 2 (Homo sapiens); test: inhibition of NOD2-driven NF-kB reporter – cell-based, luminescence, uHTS, HEK293 (AID 1566); assay type: functional
Sequence (Q9HC29 whole entry, the tested form may be a part): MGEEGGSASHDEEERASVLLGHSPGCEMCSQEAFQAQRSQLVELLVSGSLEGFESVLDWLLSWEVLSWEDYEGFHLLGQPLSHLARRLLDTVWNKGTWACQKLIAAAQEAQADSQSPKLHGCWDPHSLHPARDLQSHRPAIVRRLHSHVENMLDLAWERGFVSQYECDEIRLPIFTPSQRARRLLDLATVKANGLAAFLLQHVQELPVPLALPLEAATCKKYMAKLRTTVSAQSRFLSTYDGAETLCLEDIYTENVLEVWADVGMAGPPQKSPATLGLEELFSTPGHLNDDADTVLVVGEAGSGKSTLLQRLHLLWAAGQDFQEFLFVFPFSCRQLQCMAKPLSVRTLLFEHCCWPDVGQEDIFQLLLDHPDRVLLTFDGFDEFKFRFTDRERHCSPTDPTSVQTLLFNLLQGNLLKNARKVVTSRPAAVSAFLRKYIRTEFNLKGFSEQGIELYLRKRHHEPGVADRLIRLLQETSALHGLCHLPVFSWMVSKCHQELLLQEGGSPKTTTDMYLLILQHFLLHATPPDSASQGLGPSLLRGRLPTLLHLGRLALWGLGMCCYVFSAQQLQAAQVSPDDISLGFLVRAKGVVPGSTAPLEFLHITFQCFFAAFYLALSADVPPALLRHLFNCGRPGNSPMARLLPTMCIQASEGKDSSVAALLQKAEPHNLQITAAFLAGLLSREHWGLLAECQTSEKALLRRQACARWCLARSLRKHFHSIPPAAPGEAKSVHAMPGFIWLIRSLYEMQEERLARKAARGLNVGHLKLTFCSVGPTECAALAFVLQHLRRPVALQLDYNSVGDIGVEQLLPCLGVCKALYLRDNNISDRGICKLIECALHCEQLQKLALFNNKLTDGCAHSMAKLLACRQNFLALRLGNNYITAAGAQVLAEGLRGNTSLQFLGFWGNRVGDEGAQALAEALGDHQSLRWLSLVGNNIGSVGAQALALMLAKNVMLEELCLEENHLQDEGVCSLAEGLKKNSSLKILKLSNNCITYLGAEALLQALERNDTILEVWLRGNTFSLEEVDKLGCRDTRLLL
Calls of active or inactive are those of the source. How the calls were made is not given here.
Outcomes: label 1 (active), label 0 (inactive)

[[record]]
smiles_entry = "Cc1ccc2c(c1)c(/C=C/c1cc[n+](C)cc1)c(C)n2C"
group = "label 1"

[[record]]
smiles_entry = "COc1cccc(N=Nc2ccc(O)c3ncccc23)c1"
group = "label 0"

[[record]]
smiles_entry = "CCS(=O)(=O)C1=NN2C(=N)/C(=C\\c3ccc(OCCOc4cccc(OC)c4)c(OC)c3)C(=O)N=C2S1"
group = "label 1"

[[record]]
smiles_entry = "Cc1nc(N2CCN(c3ccccn3)CC2)c2c(C)c(C(=O)N3CCN(c4ccccc4F)CC3)sc2n1"
group = "label 1"

[[record]]
smiles_entry = "Cn1c(=O)c2c(nc(Oc3ccc4ccccc4c3)n2C)n(C)c1=O"
group = "label 1"

